Measured pIC50 by item
# measuredOn: Autotaxin (ATX) (Homo sapiens (Human))
API: returns pIC50 as number; meaning -log10 of concentration in mol/L.

Before answering, review these 3 worked examples.
CCc1c(N(C)c2nc(-c3ccc(F)cc3)c(C#N)s2)c2nc(N3CCN(CC(=O)N4CC(O)C4)CC3)ccc2n1C	6.85
CCc1nn2c(C)cc(N3CCN(CC(=O)N4CC(O)C4)CC3)nc2c1N(C)c1nc(-c2ccc(F)cc2)c(C#N)s1	7.21
CCn1nc2c(C)cc(N3CCN(CC(=O)N4CC(O)C4)CC3)nc2c1N(CCF)c1nc(-c2ccc(F)cc2)c(C#N)s1	7.57

Enquiry: Checklist item: pIC50 tested on Autotaxin (ATX) (Homo sapiens (Human)), entry CCN(c1nc(-c2ccc(F)cc2)c(C#N)s1)c1c2cc(N3CCN(CC(=O)N4CC(O)C4)[C@H](C(F)(F)F)C3)cc(F)c2nn1CC [Compound S-0135A] , value?
Return: 6.88

Enquiry: Given the entry CCn1nc2c(F)cc(N3CCN(CC(=O)N4CC(O)C4)CC3C(F)(F)F)cc2c1N(C)c1nc(-c2ccc(F)cc2)c(C#N)s1 (single isomer, unassigned) [Compound S-0131B] , what pIC50 was observed with Autotaxin (ATX) (Homo sapiens (Human))?
Return: 7.44

Enquiry: Fill in the recorded pIC50 for this compound, with Autotaxin (ATX) (Homo sapiens (Human)) as test system: CCn1nc2ccc(N3CCN(CC(=O)N4CC(O)C4)CC3)nc2c1N(C)c1nc(-c2ccc(F)cc2)c(C#N)s1
Return: 7.64
